src = patent US12581252B2

pIC50: recorded values
# experimental.target: H1047R PIK3CA enzyme (Homo sapiens, UniProt P42336, H1047R)
# Sequence (P42336 whole entry H1047R): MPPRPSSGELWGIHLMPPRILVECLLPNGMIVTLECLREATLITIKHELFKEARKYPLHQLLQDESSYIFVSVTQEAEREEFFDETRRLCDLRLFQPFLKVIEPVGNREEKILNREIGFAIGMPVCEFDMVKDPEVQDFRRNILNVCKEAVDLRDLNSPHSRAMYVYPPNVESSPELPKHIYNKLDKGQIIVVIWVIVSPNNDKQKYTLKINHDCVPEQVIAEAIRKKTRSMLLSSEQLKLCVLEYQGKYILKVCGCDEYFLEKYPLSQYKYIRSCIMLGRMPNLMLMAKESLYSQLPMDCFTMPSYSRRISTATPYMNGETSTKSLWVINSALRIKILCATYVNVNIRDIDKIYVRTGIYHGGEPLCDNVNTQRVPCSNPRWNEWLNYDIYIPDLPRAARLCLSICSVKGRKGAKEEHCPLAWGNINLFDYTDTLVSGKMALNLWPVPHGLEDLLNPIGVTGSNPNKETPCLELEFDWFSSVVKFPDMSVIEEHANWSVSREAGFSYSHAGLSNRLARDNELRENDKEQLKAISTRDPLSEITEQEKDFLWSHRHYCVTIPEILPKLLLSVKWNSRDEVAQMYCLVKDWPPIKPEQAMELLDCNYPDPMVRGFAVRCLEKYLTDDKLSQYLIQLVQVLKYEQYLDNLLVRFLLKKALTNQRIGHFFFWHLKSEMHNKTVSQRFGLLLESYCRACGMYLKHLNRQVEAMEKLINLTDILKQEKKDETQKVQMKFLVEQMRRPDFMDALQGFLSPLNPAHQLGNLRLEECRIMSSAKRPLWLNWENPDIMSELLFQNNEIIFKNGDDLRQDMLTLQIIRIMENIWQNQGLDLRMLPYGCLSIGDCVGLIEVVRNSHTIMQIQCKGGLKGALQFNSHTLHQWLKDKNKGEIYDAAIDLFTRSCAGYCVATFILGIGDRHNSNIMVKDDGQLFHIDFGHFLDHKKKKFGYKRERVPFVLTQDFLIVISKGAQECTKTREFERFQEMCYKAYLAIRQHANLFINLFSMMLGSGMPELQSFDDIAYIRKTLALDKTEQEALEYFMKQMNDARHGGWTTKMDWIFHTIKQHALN
# Sequence (P27986 whole entry partner): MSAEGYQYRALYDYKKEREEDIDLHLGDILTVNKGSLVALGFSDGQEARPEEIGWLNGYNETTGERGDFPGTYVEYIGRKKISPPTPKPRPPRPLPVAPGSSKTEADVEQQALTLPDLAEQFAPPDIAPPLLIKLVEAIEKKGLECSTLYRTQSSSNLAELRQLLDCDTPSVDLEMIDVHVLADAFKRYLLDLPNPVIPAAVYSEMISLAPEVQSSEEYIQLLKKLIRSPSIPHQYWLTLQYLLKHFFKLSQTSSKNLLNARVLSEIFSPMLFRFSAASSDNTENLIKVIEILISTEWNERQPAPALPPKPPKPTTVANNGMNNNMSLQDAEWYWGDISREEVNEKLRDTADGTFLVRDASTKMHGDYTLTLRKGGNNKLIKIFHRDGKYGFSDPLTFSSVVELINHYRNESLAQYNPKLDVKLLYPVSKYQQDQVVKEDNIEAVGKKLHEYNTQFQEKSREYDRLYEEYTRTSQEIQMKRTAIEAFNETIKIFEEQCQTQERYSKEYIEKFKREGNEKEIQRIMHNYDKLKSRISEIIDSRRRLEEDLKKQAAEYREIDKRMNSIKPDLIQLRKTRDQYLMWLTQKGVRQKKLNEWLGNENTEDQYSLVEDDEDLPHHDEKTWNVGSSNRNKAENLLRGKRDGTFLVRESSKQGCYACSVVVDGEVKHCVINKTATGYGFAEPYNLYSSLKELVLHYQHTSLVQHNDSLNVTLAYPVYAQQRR
# assay.protocol: ADP-Glo Biochemical PIK3CA Kinase Assay
# Experimental: Compounds to be assayed were plated in 16 doses of 1:2 serial dilutions (20 nL volume each well) on a 1536-well plate, and the plate warmed to room temperature. […] To the well was added 1 μL of 200 μM ATP and 20 μM of diC8-PIP2 in Substrate Assay Buffer (50 mM HEPES pH7.4, 50 mM NaCl, 5 mM DTT and 0.03% CHAPS) to start the reaction, and the plate was shaken for 10 seconds, then spun briefly at 1500 rpm, and then incubated for 60 minutes at room temperature. […]
pIC50: −log10 of the molar value.

Would you please look over these solved cases?
# compound, pIC50
measured = [
    ("O=C(Nc1cnc(N2CCOCC2)c2c1C(c1cc(F)ccc1Cl)NC2=O)c1cc(F)cc(C(F)(F)F)c1 (centres unmarked)", "5.00 to 6.00"),
    ("CC[C@@]1(O)CN(C(=O)Nc2cccc3c2[C@H](c2cc(F)ccc2Cl)NC3=O)c2ccc(F)cc21 (single isomer, unassigned)", "5.00 to 6.00"),
    ("O=C1N[C@@H](c2cc(F)ccc2Cl)c2c(NC(=O)N3C[C@@](O)(C(F)(F)F)c4cc(F)ccc43)cc(F)cc21 (single isomer, unassigned)", "5.00 to 6.00"),
]

Given the entry O=C(Nc1cc(CS(=O)(=O)C2CC2)cc2c1C(c1cc(F)ccc1Cl)NC2=O)c1cc(F)cc(C(F)(F)F)c1 (centres unmarked) , report its measured pIC50.
≥ 7.00

Which pIC50 value is on record for CC1(Cc2cc(NC(=O)c3cc(F)cc(C(F)(F)F)c3)c3c(c2)C(=O)N[C@H]3c2cc(F)ccc2Cl)COC1 ?
≥ 7.00

Name the recorded pIC50 for O=C(Nc1cccc2c1C(CC1CCCC1)NC2=O)c1cc(F)cc(C(F)(F)F)c1 (centres unmarked) .
5.00 to 6.00

Recorded pIC50 of COCc1cc(NC(=O)N2C[C@@](O)(C(F)(F)F)c3cc(F)ccc32)c2c(c1)C(=O)N[C@@H]2c1cc(F)ccc1Cl (single isomer, unassigned) , please.
≥ 7.00

Suppose we examine the compound N#Cc1cnc2cnc(-c3cc(NC(=O)c4cc(F)cc(C(F)(F)F)c4)c4c(c3)C(=O)NC4c3cc(F)ccc3Cl)cn12 (centres unmarked) ; what pIC50 value has been reported?
≥ 7.00

# get_value(readout='pIC50', item= O=C(Nc1cccc2c1C(C1CCCCC1O)NC2=O)c1cc(F)cc(C(F)(F)F)c1 (centres unmarked) [Compound I-2060] )
4.00 to 5.00

// query pIC50 value for entry O=C1NC(c2cc(F)ccc2Cl)c2c1cc(-c1ccc3ncnn3c1)cc2N1CCn2c(nnc2C(F)(F)F)C1 (centres unmarked)
4.00 to 5.00

----------
Each entry below lists one item and its recorded IC50 value.
# assay.protocol: cells
# conditions.used: Homo sapiens, MCF-10A, read-out: MCF10A IC50

Here are 2 compounds together with their reported answers.
# compound, IC50
measured = [
    ("CC(=O)Nc1cc(NC(=O)N2C[C@](O)(C(F)(F)F)c3cc(F)ccc32)c2c(c1)C(=O)N[C@@H]2c1cc(F)ccc1Cl (single isomer, unassigned)", "< 1000 nM"),
    ("O=C(Nc1cc(-c2ccc3nccn3n2)cc2c1C(c1cc(F)ccc1Cl)NC2=O)c1cc(F)cc(C(F)(F)F)c1 (stereo not drawn)", "< 1000 nM"),
]

Item under review: O=C1N[C@H](c2ccccc2Cl)c2c(NC(=O)N3C[C@@](O)(C(F)(F)F)c4cc(F)ccc43)cccc21 (single isomer, unassigned) . Reported IC50?
< 1000 nM
